Data origin, for the record: the supplement of paper PMC11208160

Assay: recombinant UMI read abundance after kanamycin selection (control-corrected) (log10(CPM+1)); higher = more efficient recombination; extreme values may be limits of the assay; sequences stand for … in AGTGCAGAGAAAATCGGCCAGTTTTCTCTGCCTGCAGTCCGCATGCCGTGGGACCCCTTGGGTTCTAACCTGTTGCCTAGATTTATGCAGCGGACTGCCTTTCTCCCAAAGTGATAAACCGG…AGGTTGGTTTCACT; site = the 11-nt donor;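 also: IS621 bridge recombinase in Escherichia coli cells against a fixed T5 target plasmid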
In this section we review reported recombinant UMI read abundance (log10) values for a set of sequences.
OBSERVATION_TYPE: recombinant UMI read abundance (log10)

| SEQUENCE_CODE | MEASURED |
| --- | --- |
| CCCGGTACATGGACCGGTTTTCCCGGTAATCCGTATTTGCA (site CCCGGTTCTTG) | 0 |
| CCCTTCTCATGGACCGGTTTTCCCGGTAATCCGTATTTGGG (site CCCATCTCTCC) | 0.0128 |
| TAAGCAGCATGGACCGGTTTTCCCGGTAATCCGTATTTGCT (site TAAGCAGCTAG) | 2.32 |
| GACTTGACATGGACCGGTTTTCCCGGTAATCCGTATTTGCT (site CACTTGACTAG) | 0.596 |
| TCTACCGCATGGACCGGTTTTCCCGGTAATCCGTATTTGCG (site TCTACCGCTCG) | 0.0133 |
| TAGAGTACATGGACCGGTTTTCCCGGTAATCCGTATTTGCA (site TAGAATACTTG) | 1.37 |
| TGCGGCACATGGACCGGTTTTCCCGGTAATCCGTATTTGCC (site TGCGGCACTGG) | 1.44 |
| TCTAACACATGGACCGGTTTTCCCGGTAATCCGTATTTGTC (site TCTAACACTGA) | 0 |
| GGAGCGGCATGGACCGGTTTTCCCGGTAATCCGTATTTGGT (site GGAGGGGCTAC) | 0.00705 |
| AACAAACCATGGACCGGTTTTCCCGGTAATCCGTATTTGGT (site CACAAACCTAC) | 0 |
| AACAAACCATGGACCGGTTTTCCCGGTAATCCGTATTTGGT (site TACAAACCTAC) | 0.337 |
| TGCTAGCCATGGACCGGTTTTCCCGGTAATCCGTATTTGGT (site TGCTAGGCTAC) | 0.0165 |
| TGCCATGCATGGACCGGTTTTCCCGGTAATCCGTATTTGGA (site TGCCATGCTTC) | 0.294 |
| GAAGATTCATGGACCGGTTTTCCCGGTAATCCGTATTTGTT (site GACGATTCTAA) | 0 |
| GGTAAGTCATGGACCGGTTTTCCCGGTAATCCGTATTTGTT (site GGTACGTCTAA) | 0.00407 |
| AATGAAACATGGACCGGTTTTCCCGGTAATCCGTATTTGCT (site AATGTAACTAG) | 1.65 |
| CAACACACATGGACCGGTTTTCCCGGTAATCCGTATTTGTG (site CAACACACTCA) | 0.834 |
| CAATTTCCATGGACCGGTTTTCCCGGTAATCCGTATTTGCT (site CAATTTCCTAG) | 1.08 |
